Ref: PubChem BioAssay

Collected activity values appear next to each entry.
# Target Under Test: Tumor necrosis factor receptor superfamily member 10B (Homo sapiens)
# Experimental Details: caspase-8 TRAIL sensitization, hit retest, confirmation, cell-based, NB7+caspase-8, with/without TRAIL, luminescence panel (AID 651596)
# Stated Conditions: NB7 neuroblastoma + caspase-8, TRAIL sensitization, luminescence viability, with TRAIL, mean of runs, at 10 µM, stronger effect = higher value
Reported Metric: activity

> print(dat)
                                    molecule  result
 1      CCc1ccc(OCc2nc(-c3ccccn3)no2)c(Br)c1     50%
 2        COc1ccc(C(=O)Nc2ccc3[nH]ccc3c2)cc1   95.1%
 3         CC/C(=N\NC(=O)c1csc(C)c1C)c1cccs1   57.8%
 4    CN=c1scc(-c2ccccc2F)n1/N=C(\C)c1cccnc1   54.9%
 5  Cc1ccc(C(=O)Nc2cccc(C(F)(F)F)c2)cc1NC(=O)c1nccnc1N   50.6%
 6  COCCn1c(C)cc(C(=O)COC(=O)c2cccc(O)c2)c1C   86.2%
 7        O=C(Nc1nc2ccccc2s1)c1ccc2c(c1)OCO2   78.8%
 8            O=C(CC1CCCC1)Nc1nc2ccccc2[nH]1   49.7%
 9  Cc1ccc(C2=NN(C(=O)CCl)C(c3cccs3)C2)o1 (centres undefined)   99.6%
10  CCN1CCN(Cc2ccc(NC(=O)c3cc(NC(=O)C(=O)c4c[nH]c5ccccc45)cc(OC)c3)cc2C(F)(F)F)CC1   82.2%
11   Cc1ccccc1Oc1cc(-n2ncc(Cl)c(Cl)c2=O)ncn1   99.7%
12  COc1cc2c(cc1NC(=O)c1cccc([N+](=O)[O-])c1)oc1ccccc12  -1.55%
13  CC(C)c1onc(C(=O)N2CCN(C(c3ccccc3)c3ccccc3)CC2)c1[N+](=O)[O-]   98.1%
14  CSc1cc(-c2ccc(Cl)cc2)n(Cc2ccccc2)c(=O)c1C#N   72.2%

====

# Target Under Test: Tumor necrosis factor receptor superfamily member 10B (Homo sapiens)
# Experimental Details: caspase-8 TRAIL sensitization, hit retest, confirmation, cell-based, NB7+caspase-8, with/without TRAIL, luminescence panel (AID 651596)
# Stated Conditions: NB7 neuroblastoma + caspase-8, TRAIL sensitization, luminescence viability, with TRAIL, mean of runs, at 10 µM, stronger effect = higher value
Reported Metric: activity (%)

> print(dat)
                                   compound  recorded.number
1          CCc1ccc(-c2cn3nc(C)c(C)nc3n2)cc1             75.3
2             CCc1ccc(C(=O)Nc2cc(C)ccc2F)s1             -9.2
3  CCOC(=O)c1nn(-c2ccc3c(c2)CCN3C(C)=O)cc1O               47
4       COc1ccc(C(=O)NC(=O)Nc2cc(C)ccn2)cc1             95.3
5  Cc1ccc2nc(Cl)c(/C=N/Nc3ccc(C(=O)O)cc3)cc2c1             90.2
6  COc1ccc(C2C(C(=O)N3CCN(c4ccccc4)CC3)c3ccccc3C(=O)N2C)cc1 (centres undefined)             69.5
7  Cc1cc(C)c(C)c(S(=O)(=O)N2CCN(CC(=O)c3c(N)n(Cc4ccccc4)c(=O)n(C)c3=O)CC2)c1C             76.3
8       Cc1ccc2nc(NC(=S)NC(=O)c3cccs3)sc2c1             82.5
9  O=C(N/N=C\c1ccc(CNS(=O)(=O)c2ccc(Cl)cc2)o1)C(=O)Nc1ccc(Oc2ccccc2)cc1             79.5

====

# Experimental Details: caspase-8 TRAIL sensitization, hit retest, confirmation, cell-based, NB7+caspase-8, with/without TRAIL, luminescence panel (AID 651596)
# Stated Conditions: NB7 neuroblastoma + caspase-8, without TRAIL, luminescence viability, without TRAIL, mean of runs, at 10 µM
Collected activity values appear next to each entry.
Reported Metric: activity (%)

> print(dat)
                                    molecule  recorded.number
 1         O=C(NCCc1ccccc1F)c1ccc2c(c1)OCCO2               91
 2     Cc1c(C)c2ccc(OCC(=O)Nc3nccs3)cc2oc1=O             57.8
 3  CCC(=O)Nc1ccc(C(=O)Cn2ncc(Cl)c(Cl)c2=O)cc1             99.3
 4          CCCOc1ccc(-c2nnc(-c3ccco3)o2)cc1             50.9
 5  Cc1ccc(S(=O)(=O)NC(=O)NC2=NC(C)(C)N(c3ccc(Cl)c(Cl)c3)C(N)=N2)cc1             84.2
 6  CC(C)(C)OC(=O)NCc1ccc(NC(=O)c2nc[nH]c2C(=O)NCCCCNC(=O)c2[nH]cnc2C(=O)Nc2ccc(CNC(=O)OC(C)(C)C)cc2)cc1             96.2
 7    COC(=O)c1sc(NC(=S)NC(=O)c2ccccc2C)nc1C             61.3
 8  COC(=O)[C@@H]1Cc2c([nH]c3ccccc23)C(C)(C)N1C(=O)CCl               98
 9  CCC(C(=O)O/N=C(\N)c1ccc(C)cc1)c1ccccc1 (stereo unspecified)             77.5
10               Cc1ccnc(NC(=O)CCC2CCCCC2)c1             46.5
11    Cc1ccc(C(=O)O/N=C(\N)c2ccc(Br)cc2)cc1C             88.2

====

# Experimental Details: TRAIL sensitizers in caspase-8 expressing neuroblastoma cells, dose response, NB7 cells plus caspase-8, luminescence, panel (AID 652002)
# Stated Conditions: NB7 neuroblastoma +caspase-8, no TRAIL, compound-alone cytotoxicity counter-screen, luminescence viability, NB7+Caspase-8, run 2; at 12.5 µM (top of the series) unless noted
Reported Metric: activity, % sensitization

> print(dat)
                                    compound            reported.metric              result
 1  CC1(C)N=C(N)N=C(N)N1c1ccc(Oc2ccc(Cl)cc2)c(Cl)c1  activity, % sensitization  68.3% [at 6.25 µM]
 2  COC(=O)[C@]12CCCCC=C1N(Cc1cccc3ccccc13)C(=O)[C@H](CC(=O)NCc1ccc(OC)c(OC)c1)C2  activity, % sensitization               36.7%
 3                     O=Nc1ccc(NO)c2ccccc12  activity, % sensitization               31.2%
 4  Nc1ccccc1C(=O)NN=Cc1cccc([N+](=O)[O-])c1  activity, % sensitization               35.3%
 5          CCCCCCCn1c2c(c(=N)c3ccccc31)CCC2  activity, % sensitization                 28%
 6  O=c1[nH]c(=S)[nH]c2c1C(c1ccc(Cl)c(Cl)c1)OC(CCc1ccccc1)C2 (configuration not stated)  activity, % sensitization                 14%
 7  Cc1ccc(S(=O)(=O)Nc2ccccc2C(=O)Nc2nc(-c3ccc(F)cc3)cs2)cc1  activity, % sensitization               40.4%
 8  CC1(Cc2ccc(OC(F)(F)F)cc2)C(=O)Nc2ccc(S(=O)(=O)NC3CCCCC3)cc21 (configuration not stated)  activity, % sensitization               28.2%
 9        CSc1ccc(/C=C/c2ccc3cccc(O)c3n2)cc1  activity, % sensitization               36.6%
10            C(=C\c1ccco1)/c1nc2ccccc2[nH]1  activity, % sensitization             -0.982%
11             Cc1cc2nc3ccc(N(C)C)cc3nc2cc1N  activity, % sensitization               12.1%
12  CCC(C)c1ccc(O)c(NC(=S)NC(=O)c2cccs2)c1 (configuration not stated)  activity, % sensitization               41.9%
13  COc1cccc(C(=O)Nc2ccc(C3CC3(Cl)Cl)cc2)c1 (configuration not stated)  activity, % sensitization               21.8%
14  O=C(N/N=C/c1cccc(OC(=O)c2ccco2)c1)c1ccc(F)cc1  activity, % sensitization               40.8%
15  COc1cc(NC(=O)c2cncc(-c3ccc(C#N)cc3)c2)cc(C(=O)Nc2cccc(C(F)(F)F)c2)c1  activity, % sensitization              -16.3%
16  NNC(=O)C1CCCn2c1nc1sc3c(c1c2=O)CCCC3 (configuration not stated)  activity, % sensitization               12.5%
17  O=C1c2ccc3c4c(ccc(c24)C(=O)N1c1cccc(O)c1)C(=O)N(c1cccc(O)c1)C3=O  activity, % sensitization               21.3%
18      C/C(=N\NC(=O)c1n[nH]c2c1CCC2)c1ccco1  activity, % sensitization               24.1%
19  CCCCC1CCC(C(=O)N(CCC(C)C)c2c(N)n(CCCC)c(=O)[nH]c2=O)CC1 (configuration not stated)  activity, % sensitization              -5.58%
20  CCCCCc1cc(=O)oc2c(C(CCN(CC)CC)c3cc(OC)c(OC)c(OC)c3)c(OC)cc(OC)c12 (configuration not stated)  activity, % sensitization               3.69%
21              O=C(NC(=O)c1ccccc1)Nc1ccccc1  activity, % sensitization              -8.56%
22  CN(C)S(=O)(=O)c1ccc(C(=O)Nc2nnc(SCC(=O)NCC3CCCO3)s2)cc1 (configuration not stated)  activity, % sensitization               28.4%
23       CCN(CC)c1ccc(/C=N/NC(=O)c2ccco2)cc1  activity, % sensitization               23.6%
24                  Cc1nc(Cl)c2oc3ccccc3c2n1  activity, % sensitization              -8.16%
25       COc1cccc(N/C=C/C(=O)c2ccc(Cl)cc2)c1  activity, % sensitization               40.5%
26       COC(=O)c1ccc(/C=C(\C#N)c2ccccn2)cc1  activity, % sensitization                -11%
27        O=C(N/N=C/c1cccnc1)c1ccc2c(c1)OCO2  activity, % sensitization               46.2%
28      CCOC(=O)c1sc(NC(=O)Nc2ccc(F)cc2)nc1C  activity, % sensitization              -3.68%
29  CCOc1ccc2nc(NC(=O)c3cccc(-c4cc5ccccc5oc4=O)c3)sc2c1  activity, % sensitization              -25.4%
30       O=C(Nc1ccc(Br)cc1F)c1ccc2c(c1)OCCO2  activity, % sensitization               34.6%
31  O=C(NCC1CCCO1)c1ccc2c3n(nc2c1)-c1ccccc1CO3 (configuration not stated)  activity, % sensitization               11.7%
32  CN1C[C@@H]2[C@@H]3C(=O)N(Cc4ccccc4)C(=O)[C@@H]3[C@](Cc3ccccc3)(C1=O)N2C(=O)c1ccc(C(C)(C)C)cc1  activity, % sensitization                -17%
